Test system: PC3 prostate cancer cells
Test: Cell viability of prostate cancer PC3 cells after 72 hours treatment
Type: cell-based
Conditions: Homo sapiens, PC-3, 10 μM
quantityName: viability at 10 µM (%)

compound	quantityName	measureUnit	readoutNumber
NC(=O)CC(NCc1cccc2ccccc12)c1ccc2c(c1)nc(-c1ccc(N(CCO)CCO)cc1)n2Cc1ccc(C(F)(F)F)cc1 (stereo not drawn)	viability at 10 µM	%	69
NCCCn1c(-c2ccc(N(CCO)CCO)cc2)nc2cc(C(CC(N)=O)NCc3ccc(C4CC=NN4)s3)ccc21 (stereo not drawn)	viability at 10 µM	%	105
CC(=O)OCCN(CCO)c1ccc(-c2nc3cc(C(CC(N)=O)NCc4ccc(-c5ccn[nH]5)s4)ccc3n2CCCN(C)C)cc1 (stereo not drawn)	viability at 10 µM	%	89
COc1cc(CNC(CC(N)=O)c2ccc3c(c2)nc(-c2ccc(N(CCOC(C)=O)CCOC(C)=O)cc2)n3C(C)C)cc(Br)c1OC (stereo not drawn) [LLS43Ac]	viability at 10 µM	%	103
CC(=O)OCCN(CCO)c1ccc(-c2nc3cc(C(CC(N)=O)NCc4ccc(-c5ccncc5)cc4)ccc3n2CCCn2ccnc2)cc1 (stereo not drawn)	viability at 10 µM	%	99
CN1CCN(c2ccc(-c3nc4cc(C(CC(N)=O)NCc5ccc(Cl)c(Cl)c5)ccc4n3Cc3ccc(C(F)(F)F)cc3)cc2)CC1 (stereo not drawn)	viability at 10 µM	%	60
NC(=O)CC(NCc1ccc(-c2cncnc2)cc1)c1ccc2c(c1)nc(-c1ccc(N(CCO)CCO)cc1)n2Cc1ccc(OC(F)(F)F)cc1 (stereo not drawn)	viability at 10 µM	%	99
NC(=O)CC(NCC1CCCCC1)c1ccc2c(c1)nc(-c1ccc(N(CCO)CCO)cc1)n2Cc1ccc(C(F)(F)F)cc1 (stereo not drawn)	viability at 10 µM	%	59
COc1cccc(Cn2c(-c3ccc(N(CCO)CCO)cc3)nc3cc(C(CC(N)=O)NCc4ccc5[nH]ncc5c4)ccc32)c1 (stereo not drawn)	viability at 10 µM	%	90
NC(=O)CC(NCC1CCCCC1)c1ccc2c(c1)nc(-c1ccc(N(CCO)CCO)cc1)n2Cc1ccc(OC(F)(F)F)cc1 (stereo not drawn)	viability at 10 µM	%	49
NC(=O)CC(NCc1cccc2ccccc12)c1ccc2c(c1)nc(-c1ccc(N(CCO)CCO)cc1)n2Cc1ccc(OC(F)(F)F)cc1 (stereo not drawn)	viability at 10 µM	%	29
NC(=O)CC(NCc1cccn1S(=O)(=O)c1ccccc1)c1ccc2c(c1)nc(-c1ccc(N(CCO)CCO)cc1)n2CCCN1CCCCC1 (stereo not drawn)	viability at 10 µM	%	87
NC(=O)CC(NCc1ccc(Cl)c(Cl)c1)c1ccc2c(c1)nc(-c1ccc(N(CCO)CCO)cc1)n2Cc1ccc(Cl)c(Cl)c1 (stereo not drawn)	viability at 10 µM	%	73
COc1ccc(CCn2c(-c3ccc(N(CCOC(C)=O)CCOC(C)=O)cc3)nc3cc(C(N)CC(N)=O)ccc32)cc1 (stereo not drawn)	viability at 10 µM	%	86
NC(=O)CC(NCc1ccc2[nH]ncc2c1)c1ccc2c(c1)nc(-c1ccc(N(CCO)CCO)cc1)n2Cc1ccc(C(F)(F)F)cc1 (stereo not drawn)	viability at 10 µM	%	101
CC(=O)OCCN(CCOC(C)=O)c1ccc(-c2nc3cc(C(CC(N)=O)NCc4cccn4S(=O)(=O)c4ccccc4)ccc3n2CCCN2CCCCC2)cc1 (stereo not drawn) [LLS52Ac]	viability at 10 µM	%	94
CC(=O)OCCN(CCOC(C)=O)c1ccc(-c2nc3cc(C(CC(N)=O)NCc4ccc(-c5ccn[nH]5)s4)ccc3n2CCCN(C)C)cc1 (stereo not drawn)	viability at 10 µM	%	101
NC(=O)CC(NCc1ccc(-c2ccncc2)cc1)c1ccc2c(c1)nc(-c1ccc(N(CCO)CCO)cc1)n2CCCn1ccnc1 (stereo not drawn)	viability at 10 µM	%	81
CC(=O)OCCN(CCOC(C)=O)c1ccc(-c2nc3cc(C(CC(N)=O)NCc4ccc(-c5ccncc5)cc4)ccc3n2CCCn2ccnc2)cc1 (stereo not drawn) [LLS58Ac]	viability at 10 µM	%	91
NC(=O)CC(NCC1CCCCC1)c1ccc2c(c1)nc(-c1ccc(N3CCOCC3)cc1)n2Cc1ccc(OC(F)(F)F)cc1 (stereo not drawn)	viability at 10 µM	%	6
COc1cc(CNC(CC(N)=O)c2ccc3c(c2)nc(-c2ccc(N(CCO)CCOC(C)=O)cc2)n3C(C)C)cc(Br)c1OC (stereo not drawn)	viability at 10 µM	%	101
NC(=O)CC(NCc1ccc2[nH]ncc2c1)c1ccc2c(c1)nc(-c1ccc(N(CCO)CCO)cc1)n2Cc1ccc(OC(F)(F)F)cc1 (stereo not drawn)	viability at 10 µM	%	102
COc1ccc(CCn2c(-c3ccc(N(CCO)CCO)cc3)nc3cc(C(CC(N)=O)NCC4CCCCC4)ccc32)cc1 (stereo not drawn)	viability at 10 µM	%	98
COc1ccc(CCn2c(-c3ccc(N(CCO)CCO)cc3)nc3cc(C(CC(N)=O)NCc4ccc5[nH]ncc5c4)ccc32)cc1 (stereo not drawn)	viability at 10 µM	%	98
CC(=O)OCCN(CCOC(C)=O)c1ccc(-c2nc3cc(C(CC(N)=O)NCc4ccc(Br)s4)ccc3n2CCN)cc1 (stereo not drawn) [LLS45Ac]	viability at 10 µM	%	98
NC(=O)CC(NCc1ccc(Cl)c(Cl)c1)c1ccc2c(c1)nc(-c1ccc(N3CCOCC3)cc1)n2CCCN1CCCCC1 (stereo not drawn)	viability at 10 µM	%	74
COc1ccc(CCn2c(-c3ccc(N(CCOC(C)=O)CCOC(C)=O)cc3)nc3cc(C(CC(N)=O)NCc4ccc5[nH]ncc5c4)ccc32)cc1 (stereo not drawn) [LLS53Ac]	viability at 10 µM	%	99

Every entry's value here was drawn from patent US10844052B2.
